A collection of binders and their measured In vitro binding affinity
# assay_target: T1, HLA-A*0201 molecule expressed by T2 cells (human)
# T1 construct: MHC class I molecule on T2 cells
# assay_details: T2 cell HLA-A*0201 surface expression assay, flow cytometry; relative affinity = peptide concentration inducing 20% HLA-A*0201 expression / that of reference peptide HIV pol 589-597
Answer with a bare number; do not write a unit.

FLPFGFILV (also called candidate peptide; IL13RA2-B pAg) [IL13RA2-B (antigenic peptide FLPFGFILV, SEQ ID No 31)]: 0.49
ALPFGFILV (also called IL13RA2-ST) [peptide 1A9V (Eguchi et al. 2006)]: 3.06
FLPFGFILM [peptide 1F9M]: 2.62

Switching to the query record.
Using the record for ILPFGFILA [peptide 1I9A] , state its measured In vitro binding affinity.
2.22
